These entries and their values trace back to ChEMBL document CHEMBL1932985.

experiment: Clearance in dog at 3 mg/kg, po by LC-MS/MS analysis; format: ADME, organism-based, Canis lupus familiaris; parameters: dose 3 mg/kg, route oral; conditions: in vivo
TEST_READOUT: CL/F (mL/min/kg)
State the answer as a number, implicitly in mL/min/kg.

Recorded result, COCCCS(=O)(=O)c1ccc(-c2ccc(CCN3CCC[C@H]3C)cc2)cc1 , CL/F: 13.7
